# Test method notes: BIAcore binding of proteins to heparin immobilised on a biosensor chip
# Assay context: IL-4 WT and mutants binding to heparin; in M-1s-1 (unit assumed)
Quantity: ka
I'd appreciate a reply containing only the number, no unit.

[[record]]
molecule = "K12A: IL-4 mutant, baculovirus expressed (protein) HKCDITLQEIIATLNSLTEQKTLCTELTVTDIFAASKNTTEKETFCRAATVLRQFYSHHEKDTRCLGATAQQFHRHKQLIRFLKRLDRNLWGLAGLNSCPVKEANQSTLENFLERLKTIMREKYSKCSS"
reported_value = "5.03E+04"

[[record]]
molecule = "R121A: IL-4 mutant, baculovirus expressed (protein) HKCDITLQEIIKTLNSLTEQKTLCTELTVTDIFAASKNTTEKETFCRAATVLRQFYSHHEKDTRCLGATAQQFHRHKQLIRFLKRLDRNLWGLAGLNSCPVKEANQSTLENFLERLKTIMAEKYSKCSS"
reported_value = "5.13E+04"

[[record]]
molecule = "H74A: IL-4 mutant, baculovirus expressed (protein, UniProt P05112 25-153, looked up, variant H74A) Interleukin-4: HKCDITLQEIIKTLNSLTEQKTLCTELTVTDIFAASKNTTEKETFCRAATVLRQFYSHHEKDTRCLGATAQQFARHKQLIRFLKRLDRNLWGLAGLNSCPVKEANQSTLENFLERLKTIMREKYSKCSS"
reported_value = "2.05E+04"


Query: Which ka value is on record for E60A: IL-4 mutant, baculovirus expressed (protein) HKCDITLQEIIKTLNSLTEQKTLCTELTVTDIFAASKNTTEKETFCRAATVLRQFYSHHAKDTRCLGATAQQFHRHKQLIRFLKRLDRNLWGLAGLNSCPVKEANQSTLENFLERLKTIMREKYSKCSS ?
Result: 8.44E+04

Query: Next record, please: K77A/K84A: IL-4 double mutant (protein) HKCDITLQEIIKTLNSLTEQKTLCTELTVTDIFAASKNTTEKETFCRAATVLRQFYSHHEKDTRCLGATAQQFHRHAQLIRFLARLDRNLWGLAGLNSCPVKEANQSTLENFLERLKTIMREKYSKCSS
Result: 1.26E+04
